Tested on: parental wild-type Ba/F3 cells
Assay: Ba/F3 (WT) cell proliferation assay (Alamar Blue)
Assay type: cell-based
Details: Mus musculus, BaF3; 72 hours, Alamar Blue; read-out: BaF3 WT prolif
Where a name gives a salt, the structure may show the parent alone.
Criterion: IC50 strictly under 1000 nM. Met: Condition met. Not met: Condition not met.

O=C(NCC(F)(F)F)Nc1cccc(-c2cnc3cc(C#CCO)ccn23)c1 [Example 26] ... Condition met
Cc1cc(-c2ccn3c(-c4cccc(NC(=O)NCC(F)(F)F)c4)cnc3c2)nnc1Cl [Example 135] ... Condition met
Cn1ccnc1/C=C/c1ccn2c(-c3cccc(NC(=O)NCC(F)(F)F)c3)cnc2c1 [Example 189] ... Condition not met
CC(C)N1CCC(n2cc(-c3ccn4c(-c5cccc(NC(=O)NCC(F)(F)F)c5)cnc4c3)cn2)CC1 [Example 50, hydrochloride] ... Condition met
CC(C)(O)c1cnc(-c2ccn3c(-c4cccc(NC(=O)NCC(F)(F)F)c4)cnc3c2)nc1 [Compound 257] ... Condition not met

# evaluate next
Please indicate whether the reported IC50 of O=C(NCC(F)(F)F)Nc1cccc(-c2cnc3cc(-c4cnc(C(F)(F)F)nc4)ccn23)c1 [Example 232] is strictly below 1000 nM.
Condition met

----------
Tested on: LP-1 cell line (FGF-1/Heparin induced pERK)
Experiment: Cell-based pERK ELISA, LP-1 cells
Conditions: Homo sapiens, LP-1, read-out: LP-1 pERK ELISA (μM)
Structures can show the parent of a compound that is named as a salt.
property: IC50 (µM)
Write it as a number; the unit µM goes unstated.

O=C(NCC(F)(F)F)Nc1cccc(-c2cnc3cc(-c4ccc(NC5CCOCC5)nn4)ccn23)c1 [Example 66, bis-hydrochloride] ... 0.069
O=C(NCC(F)(F)F)Nc1cccc(-c2cnc3cc(-c4ccc(=O)[nH]n4)ccn23)c1 ... 0.33
O=C(NCC(F)(F)F)Nc1cccc(-c2cnc3cc(-c4nnc(C5CCCO5)s4)ccn23)c1 (stereo not shown) ... 0.0074

Data point: O=C(NCC(F)(F)F)Nc1cccc(-c2cnc3cc(-c4cncnc4)ccn23)c1 [Example 42, hydrochloride] ; IC50 = 0.27

Data point: CC(O)C#Cc1ccn2c(-c3cccc(NC(=O)NCC(F)(F)F)c3)cnc2c1 (stereo not shown) [Example 18, formate] ; IC50 = 0.095

Data point: CN1CC(n2cc(-c3ccn4c(-c5cccc(NC(=O)NCC(F)(F)F)c5)cnc4c3)cn2)C1 [Example 41, formate] ; IC50 = 0.025

Data point: `O=C(NCC(F)(F)F)Nc1cccc(-c2cnc3cc(-c4nnc(C(F)(F)F)s4)ccn23)c1` ; IC50 = 0.044

----------
The molecules listed here are annotated with their IC50.
Tested on: LP-1 cell line (FGF-1/Heparin induced pERK)
Assay: Cell-based pERK ELISA, LP-1 cells
Settings: Homo sapiens, LP-1, read-out: LP-1 pERK ELISA (μM)
Write it as a number; the unit µM goes unstated.

Consider the following illustrative entries.
CC(C)N1CC(n2cc(-c3ccn4c(-c5cccc(NC(=O)NCC(F)(F)F)c5)cnc4c3)cn2)C1 ... 0.014
COc1nccc(-c2ccn3c(-c4cccc(NC(=O)NCC(F)(F)F)c4)cnc3c2)n1 ... 0.046
CN1CCC(n2cc(-c3ccn4c(-c5cccc(NC(=O)NCC(F)(F)F)c5)cnc4c3)cn2)CC1 ... 0.0092

Now look at this one.
Data point: `O=C(NCC(F)(F)F)Nc1cccc(-c2cnc3cc(C#Cc4cccnc4)ccn23)c1` ; IC50 = 0.032

----------
Target: VEGFR2 (Homo sapiens (Human))
Sequence (P35968 20-1356): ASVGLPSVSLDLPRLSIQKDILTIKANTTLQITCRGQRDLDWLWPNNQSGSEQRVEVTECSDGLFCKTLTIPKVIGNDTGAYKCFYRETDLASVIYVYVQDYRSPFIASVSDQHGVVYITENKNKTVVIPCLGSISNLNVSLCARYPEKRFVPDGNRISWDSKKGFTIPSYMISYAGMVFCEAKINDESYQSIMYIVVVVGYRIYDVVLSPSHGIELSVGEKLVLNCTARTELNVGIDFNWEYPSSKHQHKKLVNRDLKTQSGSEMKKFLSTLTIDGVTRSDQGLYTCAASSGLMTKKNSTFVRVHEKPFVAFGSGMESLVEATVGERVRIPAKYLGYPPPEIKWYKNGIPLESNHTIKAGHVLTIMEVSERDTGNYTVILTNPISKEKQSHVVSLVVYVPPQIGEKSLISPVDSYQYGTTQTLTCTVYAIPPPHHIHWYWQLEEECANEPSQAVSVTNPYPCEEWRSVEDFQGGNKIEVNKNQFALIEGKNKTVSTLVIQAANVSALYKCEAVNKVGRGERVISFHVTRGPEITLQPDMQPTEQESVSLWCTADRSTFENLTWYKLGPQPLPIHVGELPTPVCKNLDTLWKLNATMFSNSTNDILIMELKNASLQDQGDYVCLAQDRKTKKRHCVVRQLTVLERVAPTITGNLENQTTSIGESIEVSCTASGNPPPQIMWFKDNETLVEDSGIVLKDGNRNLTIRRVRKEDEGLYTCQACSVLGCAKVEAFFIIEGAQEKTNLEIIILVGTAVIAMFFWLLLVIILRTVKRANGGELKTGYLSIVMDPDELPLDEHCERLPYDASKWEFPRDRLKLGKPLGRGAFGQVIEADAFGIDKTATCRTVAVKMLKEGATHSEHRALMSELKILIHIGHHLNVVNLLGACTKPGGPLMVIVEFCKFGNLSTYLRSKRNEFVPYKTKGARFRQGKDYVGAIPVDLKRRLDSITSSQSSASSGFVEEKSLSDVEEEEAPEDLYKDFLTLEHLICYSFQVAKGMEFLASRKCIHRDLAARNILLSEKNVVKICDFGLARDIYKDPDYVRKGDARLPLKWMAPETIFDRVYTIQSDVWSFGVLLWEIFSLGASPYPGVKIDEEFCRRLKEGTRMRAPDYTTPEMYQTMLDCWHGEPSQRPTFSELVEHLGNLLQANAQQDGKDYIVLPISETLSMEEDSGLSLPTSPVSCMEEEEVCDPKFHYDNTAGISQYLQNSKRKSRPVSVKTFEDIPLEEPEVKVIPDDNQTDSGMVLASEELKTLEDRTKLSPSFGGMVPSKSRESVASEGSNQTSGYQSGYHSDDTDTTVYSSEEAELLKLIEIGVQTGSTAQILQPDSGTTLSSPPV
Assay: VEGFR2 in vitro kinase inhibitory activity assay (TRF, Flt3 substrate)
Type: biochemical
Settings: 1 h; at 0.3 μM; read-out: VEGFR2 % I
The compounds listed here are annotated with their inhibition at 0.3 µM.
Dear colleague, please send the value followed by its unit.

Nc1nc(-c2ccn3c(-c4cccc(NC(=O)NCC(F)(F)F)c4)cnc3c2)cc(C(F)(F)F)n1 [Example 245] ... 43%
O=C(NCC(F)(F)F)Nc1cccc(-c2cnc3cc(-c4ccc(C(F)(F)F)nn4)ccn23)c1 [Example 229] ... 59%
CCN(CC)CCc1nnc(-c2ccn3c(-c4cccc(NC(=O)NCC(F)(F)F)c4)cnc3c2)s1 [Example 246] ... 45%

Now look at this one.
Data point: O=C(NCC(F)(F)F)Nc1cccc(-c2cnc3cc(-c4ccc(C(=O)N5CCOCC5)cn4)ccn23)c1 [Example 223] ; inhibition at 0.3 µM = 39%

----------
System: parental wild-type Ba/F3 cells
Experiment: Ba/F3 (WT) cell proliferation assay (Alamar Blue)
Assay type: cell-based
Details: Mus musculus, BaF3, read-out: BaF3 WT prolif, % inhibition
The compounds listed here are annotated with their inhibition at 3 µM.

Consider the following illustrative entries.
Cc1nnc(-c2ccn3c(-c4cccc(NC(N)=O)c4)cnc3c2)o1 [Compound 328] ... 34%
O=C(NCC(F)(F)F)Nc1cc(Br)cc(-c2cnc3cc(-c4ccnc(C(F)(F)F)n4)ccn23)c1 [Compound 294] ... 22%
CNC(=O)c1ccc(-c2ccn3c(-c4cccc(NC(=O)NCC(F)(F)F)c4)cnc3c2)nc1 [Example 224] ... 16%
Cn1cncc1/C=C/c1ccn2c(-c3cccc(NC(=O)NCC(F)(F)F)c3)cnc2c1 [Example 155] ... 28%
O=C(NCC(F)(F)F)Nc1cccc(-c2cnc3cc(-c4ncc(C(F)(F)F)c(NC5CCC5)n4)ccn23)c1 [Example 192] ... 49%

Data point: CC(=O)N1CC(n2cc(-c3ccn4c(-c5cccc(NC(=O)NCC(F)(F)F)c5)cnc4c3)cn2)C1 [Example 212] ; inhibition at 3 µM = 10%

Data point: CCNC(=O)Nc1cccc(-c2cnc3cc(-c4ncccn4)ccn23)c1 [Compound 280] ; inhibition at 3 µM = 74%

Data point: COc1cnc(-c2ccn3c(-c4cccc(NC(=O)NCC(F)(F)F)c4)cnc3c2)nc1 [Example 138] ; inhibition at 3 µM = 36%

Data point: O=C(NCC(F)(F)F)Nc1cccc(-c2cnc3cc(-c4nccc(=O)[nH]4)ccn23)c1 [Example 190] ; inhibition at 3 µM = 35%

----------
Tested on: parental wild-type Ba/F3 cells
Assay: Ba/F3 (WT) cell proliferation assay (Alamar Blue)
Format: cell-based
Settings: Mus musculus, BaF3, read-out: BaF3 WT prolif, % inhibition
The compounds listed here are annotated with their inhibition at 3 µM.
Write it as a number; the unit % goes unstated.

Data point: Nc1nc(-c2ccn3c(-c4cc(NC(=O)NCC(F)(F)F)cc(C(F)(F)F)c4)cnc3c2)ncc1F [Compound 258] ; inhibition at 3 µM = 36

Data point: CCNC(=O)Nc1cccc(-c2cnc3cc(-c4ncc(F)c(N)n4)ccn23)c1 [Example 163] ; inhibition at 3 µM = 38

----------
The compounds listed here are annotated with their pIC50.
Test system: parental wild-type Ba/F3 cells
Assay: Ba/F3 (WT) cell proliferation assay (Alamar Blue)
Assay type: cell-based
Conditions: Mus musculus, BaF3; 72 hours, Alamar Blue; read-out: BaF3 WT prolif
When answering, recall that pIC50 equals minus log10 of the concentration in mol/L, and write that number alone.

Consider the following illustrative entries.
COc1cnc(Cl)nc1-c1ccn2c(-c3cccc(NC(=O)NCC(F)(F)F)c3)cnc2c1 ... 5.44
COc1ncccc1-c1ccn2c(-c3cccc(NC(=O)NCC(F)(F)F)c3)cnc2c1 ... 5.77
CCNC(=O)Nc1cccc(-c2cnc3cc(-c4ncc(C(F)(F)F)c(N)n4)ccn23)c1 ... 5.92
NCC1CCN(c2ccc(-c3ccn4c(-c5cccc(NC(=O)NCC(F)(F)F)c5)cnc4c3)cn2)CC1 ... 6.92
Cc1cnc(-c2ccn3c(-c4cccc(NC(=O)NCC(F)(F)F)c4)cnc3c2)nc1N ... 5.00

Data point: `O=C(NCC(F)(F)F)Nc1cccc(-c2cnc3cc(C#Cc4ccsc4)ccn23)c1` ; pIC50 = 6.08

Data point: `O=C(NCC(F)(F)F)Nc1cccc(-c2cnc3cc(-c4nccc(N5CCC(O)CC5)n4)ccn23)c1` ; pIC50 = 4.49

Data point: `O=C(NCC(F)(F)F)Nc1cccc(-c2cnc3cc(-c4cc(F)ccn4)ccn23)c1` ; pIC50 = 7.11

Data point: `CC(C)(CO)n1cc(-c2ccn3c(-c4cccc(NC(=O)NCC(F)(F)F)c4)cnc3c2)cn1` ; pIC50 = 5.64

Data point: `CC(C)N1CC(n2cc(-c3ccn4c(-c5cccc(NC(=O)NCC(F)(F)F)c5)cnc4c3)cn2)C1` ; pIC50 = 6.17

----------
The molecules listed here are annotated with their IC50.
System: LP-1 cell line (FGF-1/Heparin induced pERK)
Assay: Cell-based pERK ELISA, LP-1 cells
Details: Homo sapiens, LP-1, read-out: LP-1 pERK ELISA (μM)
Where a name gives a salt, the structure may show the parent alone.
Write it as a number; the unit µM goes unstated.

O=C(NCC(F)(F)F)Nc1cccc(-c2cnc3cc(-c4cnn(C5CCNC5)c4)ccn23)c1 (stereo not shown) ... 0.35
Cn1nc(-c2ccn3c(-c4cccc(NC(=O)NCC(F)(F)F)c4)cnc3c2)ccc1=O [Example 62, hydrochloride] ... 0.11
O=C(NCC(F)(F)F)Nc1cccc(-c2cnc3cc(-c4nc5c(s4)CNCC5)ccn23)c1 [Example 53, formate] ... 0.023
O=C(NCC(F)(F)F)Nc1cccc(-c2cnc3cc(-c4ncccn4)ccn23)c1 [Example 114, hydrochloride] ... 0.047
O=C(NCC(F)(F)F)Nc1cncc(-c2cnc3cc(Cl)ccn23)c1 ... 0.82

Data point: `O=C(NCC(F)(F)F)Nc1cccc(-c2cnc3cc(-c4ccncc4)ccn23)c1` ; IC50 = 0.012

Data point: `CCNC(=O)Nc1cccc(-c2cnc3cc(-c4ncccn4)ccn23)c1` ; IC50 = 0.35

Data point: `O=C(NCC(F)(F)F)Nc1cccc(-c2cnc3cc(-c4cnn(C5CNC5)c4)ccn23)c1` ; IC50 = 0.29

Data point: CC(C)N1CCC(n2cc(-c3ccn4c(-c5cccc(NC(=O)NCC(F)(F)F)c5)cnc4c3)cn2)CC1 [Example 50, hydrochloride] ; IC50 = 0.021

Data point: `CCN(CC)CCNC(=O)C(C)(C)n1cc(-c2ccn3c(-c4cccc(NC(=O)NCC(F)(F)F)c4)cnc3c2)cn1` ; IC50 = 0.53

Data point: Cn1ccc(C#Cc2ccn3c(-c4cccc(NC(=O)NCC(F)(F)F)c4)cnc3c2)n1 [Example 86, formate] ; IC50 = 0.04

Data point: O=C(NCC(F)(F)F)Nc1cccc(-c2cnc3cc(-c4cccnn4)ccn23)c1 [Example 9, hydrochloride] ; IC50 = 0.14

Data point: `O=C(NCC(F)(F)F)Nc1cccc(-c2cnc3cc(-c4cccnc4)ccn23)c1` ; IC50 = 0.017

Data point: COc1cc(OC)nc(-c2ccn3c(-c4cccc(NC(=O)NCC(F)(F)F)c4)cnc3c2)n1 [Example 48, hydrochloride] ; IC50 = 0.13

Data point: `Cn1cncc1C#Cc1ccn2c(-c3cc(NC(=O)NCC(F)(F)F)ccc3F)cnc2c1` ; IC50 = 0.31

Data point: `CNc1ccc(-c2ccn3c(-c4cccc(NC(=O)NCC(F)(F)F)c4)cnc3c2)nn1` ; IC50 = 0.172
